# tested.target: human recombinant HDAC6 (Homo sapiens, UniProt Q9UBN7)
# Construct: purchased Calibiochem Co. (so in the source) 382180
# Sequence (Q9UBN7 whole entry): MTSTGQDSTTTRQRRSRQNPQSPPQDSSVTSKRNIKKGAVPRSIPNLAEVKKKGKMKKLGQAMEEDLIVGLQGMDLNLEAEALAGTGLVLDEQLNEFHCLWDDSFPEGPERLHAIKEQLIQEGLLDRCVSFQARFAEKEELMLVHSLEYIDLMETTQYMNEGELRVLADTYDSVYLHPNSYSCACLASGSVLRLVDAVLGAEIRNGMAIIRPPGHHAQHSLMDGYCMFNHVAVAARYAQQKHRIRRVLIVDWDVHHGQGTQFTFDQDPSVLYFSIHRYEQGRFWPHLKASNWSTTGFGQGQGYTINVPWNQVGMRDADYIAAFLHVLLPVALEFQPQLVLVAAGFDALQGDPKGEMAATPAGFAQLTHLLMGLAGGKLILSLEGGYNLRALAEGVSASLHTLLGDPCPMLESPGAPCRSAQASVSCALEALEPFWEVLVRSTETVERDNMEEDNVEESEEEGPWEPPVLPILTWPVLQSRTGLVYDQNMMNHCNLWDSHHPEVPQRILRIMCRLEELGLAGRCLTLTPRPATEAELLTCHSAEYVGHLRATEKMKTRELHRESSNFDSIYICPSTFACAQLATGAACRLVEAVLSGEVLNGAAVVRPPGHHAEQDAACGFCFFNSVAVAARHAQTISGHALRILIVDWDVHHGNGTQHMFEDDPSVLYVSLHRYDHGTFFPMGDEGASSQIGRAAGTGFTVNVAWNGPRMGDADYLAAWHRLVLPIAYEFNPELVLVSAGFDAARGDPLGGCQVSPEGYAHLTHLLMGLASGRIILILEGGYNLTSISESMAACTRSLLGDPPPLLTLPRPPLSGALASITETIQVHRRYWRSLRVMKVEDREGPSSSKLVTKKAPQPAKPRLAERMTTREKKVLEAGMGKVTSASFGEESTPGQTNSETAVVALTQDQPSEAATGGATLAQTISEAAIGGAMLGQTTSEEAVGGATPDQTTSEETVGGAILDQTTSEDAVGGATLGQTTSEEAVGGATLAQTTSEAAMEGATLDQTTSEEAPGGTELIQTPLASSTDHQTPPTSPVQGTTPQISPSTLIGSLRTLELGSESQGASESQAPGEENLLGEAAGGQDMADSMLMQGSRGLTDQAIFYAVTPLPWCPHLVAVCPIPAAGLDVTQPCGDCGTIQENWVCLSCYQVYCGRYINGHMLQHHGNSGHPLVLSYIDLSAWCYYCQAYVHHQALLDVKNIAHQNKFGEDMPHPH
# method.notes: HDAC enzyme activity test, HDAC6
# Assay type: biochemical
# test.conditions: Table 12; read-out: Inhibition ability (IC50) HDAC6
# Procedure: Then, 0.3 μg of enzyme and 10 μM of substrate per well were added, reacted at 30° C. for 60 minutes. Thereto, Fluor de Lys® Developer II (BML-KI176) was added and reacted for 30 minutes. […] From the data, the respective IC50 were calculated by GraphPad Prism 4.0 program.
pIC50: −log10 of the molar value.
Quick reference for pIC50 among some molecules

{"columns": ["molecule", "pIC50"],
 "data": [
  ["O=C(NO)c1ccc(Cn2c3c(c4cc(F)ccc42)C(=O)N(CCN2CCC(CO)CC2)CC3)cc1", 7.76],
  ["CN1CCN(CC2C(=O)c3c(n(Cc4ccc(C(=O)NO)cc4)c4ccc(F)cc34)CC2(C)C)CC1 (stereo not drawn)", 8.60],
  ["CN1CCN(CCN2CCc3c(c4ccccc4n3Cc3ccc(C(=O)NO)cc3)C2=O)CC1", 8.75],
  ["CC1(C)CC(=O)c2c(n(Cc3ccc(C(=O)NO)cc3)c3c(Cl)ccc(Cl)c23)C1", 7.03],
  ["O=C(CCCCCCn1c2c(c3cc(F)ccc31)C(=O)C(CN1CCOCC1)CC2)NO (stereo not drawn)", 7.79],
  ["CC1(C)CC(=O)c2c(n(CCCCCCC(=O)NO)c3ccc(Br)cc23)C1", 8.05],
  ["O=C(NO)c1ccc(Cn2c3c(c4cc(F)ccc42)C(=O)CCC3)cc1", 7.96],
  ["O=C(NO)c1ccc(Cn2c3c(c4ccccc42)C(=O)NCC3)cc1", 7.77],
  ["Cc1cc2c(n1CCCCCCC(=O)NO)CCCC2=O", 7.60],
  ["Cc1nccn1CC1CCc2c(c3ccccc3n2CCCCCC(=O)NO)C1=O (stereo not drawn)", 7.63],
  ["CC1(C)CC(=O)c2c(n(Cc3ccc(C(=O)NO)cc3)c3ccc(F)cc23)C1", 7.65],
  ["CC1CN(CC2CCc3c(c4ccccc4n3Cc3ccc(C(=O)NO)cc3)C2=O)CC(C)O1 (stereo not drawn)", 7.95]
]}
